molecular target: T1, human TMEM106B (human, UniProt Q9NUM4 2-274); assay: FACS HEK+huTMEM 10 ug/ml;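 also: flow cytometric binding of purified mouse IgG antibodies to HEK293 cells transiently expressing human TMEM106B, read as median fluorescence intensity on live cells with propidium iodide-positive cells excluded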
T1 construct: full-length, transiently expressed on HEK293 cells, or natively expressed on HeLa, U251 and A549 cells (the cell is named under assay); also the source of the Pepscan peptides; also called huTMEM106B; huTMEM
Listing of entries alongside the reported MFI.
Give the quantity in MFI, number only.

Request: Complete the entry with MFI for TM-39 (antibody, V domains shown) VH: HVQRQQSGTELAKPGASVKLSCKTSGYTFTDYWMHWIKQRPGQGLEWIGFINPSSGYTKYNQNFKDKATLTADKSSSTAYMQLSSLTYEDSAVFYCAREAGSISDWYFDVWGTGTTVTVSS VL: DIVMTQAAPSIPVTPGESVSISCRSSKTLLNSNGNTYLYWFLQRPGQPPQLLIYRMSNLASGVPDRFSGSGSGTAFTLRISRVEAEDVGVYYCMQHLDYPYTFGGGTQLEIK
Response: 51900

Request: Return the recorded MFI value; entry: TM-45 (antibody, V domains shown) VH: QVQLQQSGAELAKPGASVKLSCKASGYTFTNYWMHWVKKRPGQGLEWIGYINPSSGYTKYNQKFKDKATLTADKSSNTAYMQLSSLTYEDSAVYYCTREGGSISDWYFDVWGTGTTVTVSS VL: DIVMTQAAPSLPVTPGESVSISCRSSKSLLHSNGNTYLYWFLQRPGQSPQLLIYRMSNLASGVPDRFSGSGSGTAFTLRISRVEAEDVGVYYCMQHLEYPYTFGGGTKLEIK
Response: 58100

Request: Supply reported MFI belonging to this binder: TM-6 (antibody, V domains shown, mouse IgG (hybridoma)) VH: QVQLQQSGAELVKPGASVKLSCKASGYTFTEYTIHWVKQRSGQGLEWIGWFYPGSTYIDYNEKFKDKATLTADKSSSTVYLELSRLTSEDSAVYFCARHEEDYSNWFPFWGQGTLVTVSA VL: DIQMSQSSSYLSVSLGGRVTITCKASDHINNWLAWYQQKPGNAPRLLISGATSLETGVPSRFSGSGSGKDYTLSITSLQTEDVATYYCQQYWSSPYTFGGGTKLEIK
Response: 581

Request: Return MFI for the following binder: TM-5 (antibody, V domains shown) VH: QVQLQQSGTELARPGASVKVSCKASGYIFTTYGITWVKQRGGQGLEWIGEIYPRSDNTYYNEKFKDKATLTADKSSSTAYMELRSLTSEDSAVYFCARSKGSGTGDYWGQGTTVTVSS VL: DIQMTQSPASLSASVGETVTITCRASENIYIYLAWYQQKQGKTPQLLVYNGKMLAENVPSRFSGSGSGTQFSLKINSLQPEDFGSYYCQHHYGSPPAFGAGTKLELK
Response: 59300

Request: # return recorded MFI for input TM-50 (antibody, V domains shown, mouse IgG (hybridoma)) VH: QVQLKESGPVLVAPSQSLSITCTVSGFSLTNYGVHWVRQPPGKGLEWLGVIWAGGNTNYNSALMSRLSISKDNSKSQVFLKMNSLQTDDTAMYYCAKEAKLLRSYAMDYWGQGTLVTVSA VL: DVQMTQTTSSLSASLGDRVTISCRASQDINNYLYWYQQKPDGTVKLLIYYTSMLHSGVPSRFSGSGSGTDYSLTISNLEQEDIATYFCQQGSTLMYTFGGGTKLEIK
Response: 396

Others:
Request: Provide only the value of recorded MFI for TM-3 (antibody, V domains shown) VH: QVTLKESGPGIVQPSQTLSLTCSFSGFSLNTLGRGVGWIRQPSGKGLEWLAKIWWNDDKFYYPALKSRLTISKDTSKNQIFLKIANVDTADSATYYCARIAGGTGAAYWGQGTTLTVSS VL: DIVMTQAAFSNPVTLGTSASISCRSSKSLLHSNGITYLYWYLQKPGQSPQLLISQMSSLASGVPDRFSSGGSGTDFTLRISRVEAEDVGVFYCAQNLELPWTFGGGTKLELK
Response: 82300

Request: State its MFI for this binder: TM-11 (antibody, V domains shown) VH: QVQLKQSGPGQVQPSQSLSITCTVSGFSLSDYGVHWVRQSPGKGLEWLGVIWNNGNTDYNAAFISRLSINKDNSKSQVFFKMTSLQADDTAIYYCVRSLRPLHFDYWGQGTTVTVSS VL: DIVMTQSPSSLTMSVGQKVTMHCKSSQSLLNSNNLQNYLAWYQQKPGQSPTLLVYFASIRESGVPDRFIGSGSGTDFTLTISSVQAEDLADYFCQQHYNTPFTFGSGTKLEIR
Response: 57900

Request: Fill in reported MFI for this entry: TM-9 (antibody, V domains shown) VH: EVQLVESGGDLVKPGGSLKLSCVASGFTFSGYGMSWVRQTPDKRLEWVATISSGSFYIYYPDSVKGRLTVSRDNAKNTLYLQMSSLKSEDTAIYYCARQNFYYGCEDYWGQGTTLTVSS VL: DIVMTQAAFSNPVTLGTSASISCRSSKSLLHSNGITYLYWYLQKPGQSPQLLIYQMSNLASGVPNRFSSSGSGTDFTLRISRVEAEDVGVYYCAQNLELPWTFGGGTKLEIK
Response: 56400

Request: Report MFI for TM-10 (antibody, V domains shown) VH: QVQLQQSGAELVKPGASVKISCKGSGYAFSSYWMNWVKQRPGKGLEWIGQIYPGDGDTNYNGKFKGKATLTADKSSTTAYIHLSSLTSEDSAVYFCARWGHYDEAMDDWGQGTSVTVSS VL: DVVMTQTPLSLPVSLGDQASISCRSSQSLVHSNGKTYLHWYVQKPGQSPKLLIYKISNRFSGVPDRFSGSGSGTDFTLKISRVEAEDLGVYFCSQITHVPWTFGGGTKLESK
Response: 36500

Request: Specify MFI for TM-22 (antibody, V domains shown) VH: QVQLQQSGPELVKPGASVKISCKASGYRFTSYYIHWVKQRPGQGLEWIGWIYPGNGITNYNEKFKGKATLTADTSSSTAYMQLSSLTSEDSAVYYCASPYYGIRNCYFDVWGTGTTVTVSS VL: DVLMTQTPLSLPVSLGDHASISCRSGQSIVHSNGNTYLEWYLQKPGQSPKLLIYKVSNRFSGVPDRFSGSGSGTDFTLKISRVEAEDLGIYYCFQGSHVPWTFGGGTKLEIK and stop.
Response: 3580
